Assay: xn = mol fraction of the nth substance listed
Conditions: 318.15 K; 101 kPa; x2 = 0.5
Recorded viscosity by entry
endpointName: viscosity (mPa·s)

INSERT INTO results (compound, recordedvalue) VALUES
  ('CCCCCCCCO + CO', 1.927),
  ('CCCCCCCCO + CCO', 2.14),
  ('CCCCCCCCO + CCCCO', 2.618),
  ('CCCCCCCCO + CCCO', 2.45);

----------
Assay: xn = mol fraction of the nth substance listed
Settings: 308.15 K; 101 kPa; x2 = 0.7
± gives the uncertainty stated by the source.
Recorded viscosity by entry
endpointName: viscosity

INSERT INTO assay_data (compound, recordedvalue) VALUES
  ('CCCCCCCCO + CCCCO', '2.8 ± 0.025 mPa·s'),
  ('CCCCCCCCO + CO', '1.495 ± 0.013 mPa·s'),
  ('CCCCCCCCO + CCO', '1.901 ± 0.017 mPa·s'),
  ('CCCCCCCCO + CCCO', '2.517 ± 0.023 mPa·s');
